Target: Somatostatin receptor 5 (SSTR5) (human), P35346
Sequence (P35346 whole entry): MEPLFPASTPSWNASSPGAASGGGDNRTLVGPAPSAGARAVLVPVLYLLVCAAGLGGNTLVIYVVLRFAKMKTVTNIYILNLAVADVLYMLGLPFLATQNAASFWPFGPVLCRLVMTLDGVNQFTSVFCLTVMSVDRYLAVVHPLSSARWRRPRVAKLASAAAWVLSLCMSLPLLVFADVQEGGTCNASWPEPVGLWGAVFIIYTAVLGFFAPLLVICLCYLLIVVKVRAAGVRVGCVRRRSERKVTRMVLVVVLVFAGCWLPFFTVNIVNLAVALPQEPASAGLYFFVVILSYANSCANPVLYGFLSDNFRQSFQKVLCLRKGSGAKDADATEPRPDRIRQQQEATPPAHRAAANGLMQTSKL
Conditions: chains peptide; internal disulfide bond between the two cysteines (cyclic peptide)
Bridges are numbered along the chain shown (N, C = ends). Where no end group is shown, it is not given here.
endpoint: IC50 (nM)
Give the number; nM is assumed, so skip it.

Recall and state the measured IC50 for PCKNFFWKTFSSCK (disulfide 2-13 (inferred)) [Cortistatin-14 (r,mCST-14), Q62949 99-112] .
0.3
